Provenance of the data: ChEMBL document CHEMBL1156462

// reported pIC50 per item
tested on: Tobacco mosaic virus; assay: Inhibition of TMV U1 replication in tobacco BY2 protoplast by local lesion assay using Chenopodium quinoa leaves; format: functional, organism-based
pIC50: −log10 of the molar value.
MEASUREMENT_TYPE: pIC50

1. CO[C@@H]1C[C@H](O[C@H]2CC[C@@]3(C)C(=CC[C@H]4C(=O)OC5CO[C@]6(C)OC=C(CC[C@@H]43)[C@H]56)C2)O[C@H](C)[C@H]1O[C@H]1C[C@H](O)[C@H](O[C@@H]2C[C@@H](OC)[C@H](O[C@@H]3O[C@H](CO)[C@@H](O[C@@H]4O[C@H](CO)[C@@H](O)[C@H](O)[C@H]4O)[C@H](O)[C@H]3O)[C@@H](C)O2)[C@@H](C)O1 (some centres undefined) [PANICULATUMOSIDE C]; 7.60
2. CO[C@H]1C[C@H](O[C@H]2[C@@H](OC)C[C@H](O[C@@H]3[C@@H](C)O[C@H](O[C@H]4CC[C@@]5(C)C(=CC[C@H]6C(=O)OC7CO[C@]8(C)OC=C(CC[C@@H]65)[C@H]78)C4)C[C@H]3OC)O[C@@H]2C)O[C@@H](C)[C@@H]1O[C@@H]1O[C@H](CO)[C@@H](O[C@@H]2O[C@H](CO)[C@@H](O)[C@H](O)[C@H]2O)[C@H](O)[C@H]1O (some centres undefined) [PANICULATUMOSIDE D]; 7.60
3. CO[C@@H]1C[C@@H](O[C@H]2CC[C@@]3(C)C(=CC[C@H]4C(=O)OC5CO[C@]6(C)OC=C(CC[C@@H]43)[C@H]56)C2)O[C@H](C)[C@H]1O[C@H]1C[C@H](O)[C@H](O[C@H]2C[C@@H](OC)[C@@H](O[C@@H]3O[C@H](CO)[C@@H](O[C@@H]4O[C@H](CO)[C@@H](O)[C@H](O)[C@H]4O)[C@H](O)[C@H]3O)[C@H](C)O2)[C@@H](C)O1 (some centres undefined) [PANICULATUMOSIDE E]; 7.60
4. C[C@]12OC=C3CC[C@H]4[C@@H](CC=C5C[C@@H](O)CC[C@@]54C)C(=O)OC(CO1)[C@@H]32 (some centres undefined); 7.77

====

tested on: Tobacco mosaic virus; experiment: Inhibition of TMV U1 replication in tobacco BY2 protoplast by local lesion assay using Chenopodium quinoa leaves; format: functional, organism-based
pIC50: −log10 of the molar value.
MEASUREMENT_TYPE: pIC50

1) CO[C@@H]1C[C@H](O[C@H]2CC[C@@]3(C)C(=CC[C@H]4C(=O)OC5CO[C@]6(C)OC=C(CC[C@@H]43)[C@H]56)C2)O[C@H](C)[C@H]1O (stereo partly specified) [CYNATRATOSIDE A]; 7.60

====

assay: Selectivity index, ratio of CC50 for BHK21 cells to EC50 for Getah virus; format: toxicity, cell-based, BHK-21; conditions: hamster, read-out: Ratio CC50/EC50
MEASUREMENT_TYPE: selectivity ratio

1) CO[C@@H]1C[C@H](O[C@H]2CC[C@@]3(C)C(=CC[C@H]4C(=O)OC5CO[C@]6(C)OC=C(CC[C@@H]43)[C@H]56)C2)O[C@H](C)[C@H]1O[C@H]1C[C@H](O)[C@H](O[C@@H]2C[C@@H](OC)[C@H](O[C@@H]3O[C@H](CO)[C@@H](O[C@@H]4O[C@H](CO)[C@@H](O)[C@H](O)[C@H]4O)[C@H](O)[C@H]3O)[C@@H](C)O2)[C@@H](C)O1 (stereo partly specified) [PANICULATUMOSIDE C]; 16500
